In this section we review reported pIC50 values for a set of compounds.
Test system: HTT
Test: Protein abundance, HiBit-assay system (Promega), HTT
Type: cell-based
Conditions: Table 6; HiBiT-modified K562 cells, 24 hours
pIC50: −log10 of the molar value.

Compound | Test Result
Cc1cn2cc(NC(=O)c3ccc(N4CCNCC4)c4cc(C)oc34)cc(F)c2n1 | 6.00 to 7.00
Cc1cn2cc(NC(=O)c3ccc(N4CC(C)(C)NC(C)(C)C4)c4cc(C)oc34)cc(F)c2n1 | < 5.00
Cc1cn2cc(NC(=O)c3ccc(N4C5CNCC54)c4cn(C)nc34)cc(F)c2n1 (stereo not drawn) | 6.00 to 7.00

Query: Field request: pIC50 | item: Cc1cn2nc(NC(=O)c3ccc(C4CCNCC4)c4cc(C)oc34)cc(C)c2n1
Reply: 6.00 to 7.00

Query: Field request: pIC50 | item: CCn1cc2c(N3CCNCC3)ccc(C(=O)Nc3cc(F)c4nc(C)c(F)n4c3)c2n1
Reply: 5.00 to 6.00

Query: Field request: pIC50 | item: Cc1cn2cc(NC(=O)c3ccc(C4CCNCC4)c4cc(C)oc34)cc(F)c2n1
Reply: 5.00 to 6.00

Query: Field request: pIC50 | item: CCn1cc2c(N3CCNCC3)ccc(C(=O)Nc3cc(F)c4ncccc4c3)c2n1
Reply: 5.00 to 6.00

Query: Field request: pIC50 | item: Cc1cn2cc(NC(=O)c3ccc(N4CCN5CCCC5C4)c4cc(C)oc34)cc(F)c2n1 (stereo not drawn)
Reply: 5.00 to 6.00

Query: Field request: pIC50 | item: CCC1CN(c2ccc(C(=O)Nc3cc(F)c4nc(C)cn4c3)c3oc(C)cc23)CCN1 (stereo not drawn)
Reply: 5.00 to 6.00

Query: Field request: pIC50 | item: CC1=CC2C(N3CCC(N(C)C)CC3)=CC=C(C(=O)Nc3cc(F)c4nc(C)cn4c3)C2O1 (stereo not drawn)
Reply: 5.00 to 6.00

Query: Field request: pIC50 | item: Cc1cn2cc(NC(=O)c3ccc(N4CCC(C)(NC(C)C)C4)c4cn(C)nc34)cc(F)c2n1 (stereo not drawn)
Reply: < 5.00

Query: Field request: pIC50 | item: Cc1cn2cc(NC(=O)c3ccc(N4CCNC5(CC5)C4)c4cc(C)oc34)cc(F)c2n1
Reply: 5.00 to 6.00
